B1: TPR t1 (parent)
chain: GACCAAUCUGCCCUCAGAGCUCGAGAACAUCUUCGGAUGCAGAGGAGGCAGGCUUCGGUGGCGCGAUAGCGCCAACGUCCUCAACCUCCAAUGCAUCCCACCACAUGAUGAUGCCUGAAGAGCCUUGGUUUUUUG

Variants of: B1
ASSAY_METHOD_TEXT: polymerase ribozyme fitness, log enrichment relative to wild type (log ratio); higher = more active; in vitro selection for triplet polymerase activity
// map polymerase ribozyme fitness (log ratio) to label using band 1 = under -4, band 2 = from -4 up to -2, band 3 = -2 and over

Here's what some known entries look like.
GACCAAUCUGCCCUCAGAGCUCUAGAACAUCUUCGGGUGCAGAGGAGGCAGGCUUCGGUGGCGCGAUAGCGCCAACGUCCUCAACCUCCAAUGGAUCCCACCACAUGAUGAUGCCUGAAGAGCCUUGGUUUUUUG [G23U A37G C94G] ... band 1
GACCAAUCUGCCCUCAGAGCUCGAGAACAUCUUCGGAUGCAGAGGAGGCAGGCUUCGGUGGCGCGAUAGCGCCAACGUCCUCAACAUCCAAUGCAUCCCACCACAUGAUGAUGCCUGAAGGGCCUUGGUUUUUUG [C86A A121G] ... band 3
GACCAAUCUGCCCUCAGAGCUCGAGAACAUCUUCGGAUGCAAAUGAGGCAGGCUUCGGUGGCGCGAUAGCGCGAACGUCCUCAACCUCCAAUGCAUCCCACCACAUGAUGAAGCCUGAAGAACCUUGGUUUUUUG [G42A G44U C73G U112A G122A] ... band 2
GACCAAUUUGCCCUCAGAGCUCGAGAACAUCUUCGGAUGCAGAGGAGGCAGGCUUCGGUGGCCCGAUAGCGCCAACGUCCUCAACCUCCAAUGCAUCCCACUACAUGAUGAUGCCUGAAGAGCCUUGGUUUUUUG [C8U G63C C102U] ... band 2
GACCAAUCUGCCCUCAGAGCUAGAGAACAUCUUCGGAUGCAGAGGAGGCAGGCUUCGGUGGCGCGAUAGCGCCAACGUCCUCAACGUCCAAUGCAUCCCACCACAUGAUGAUGCCUGAAGAGCCUUGGUUUUUUG [C22A C86G] ... band 1
GACCAAUCUGCCCUCAGAGCUCGAGAACAUCUUCGGAUGCAGAGGAGGCAGGCUUCGGUGGCGCGAUAGCGCCAACGUCCUCAACCUCCAAUGCAUCCCACCACAAGAUGAAGCCUGAAGAGCCUUGGUUUUUUG [U106A U112A] ... band 3
GAGCAAUCUGCCCUCAGAGCUCGAGAACAUCUUCGGAUGCAGAGGUGGCAGGCUUCGGUGGCGCGAUAGCGCCAACGUCCUCAACCUCCAAUGCAUCCCACCACAUGAUGAUGCCUGAAGAGCCUUGGUUUUUUG [C3G A46U] ... band 2
GACCUAUCUGCCCUCAGAGCUCGAGAACAUCUUCGGAUGCAGAGGAGGCAGGCUUCGGUUGCGCGAUAGCGCCAACGUCCUCAACCUCCAAUGCAUCCCACCACAUGAUGAUGCCUGAAGAGCCUUGGUUUUUUG [A5U G60U] ... band 3

# bin lookup: classify GACCAAUCUGCCCUCAGAGCUCGAGAACAUCUUCGGAUGCAGAGGAGGCAGGCUUCGGUGGCGCGAUAGCGCCAACGUCCUCAACCACCAAUGCAUCCUACCACAUGAUUAUGCCUGAAGAGCCUUGGUUUUUUG [U87A C99U G110U] by its polymerase ribozyme fitness (log ratio)
band 1

Consider next the variant GACCAAUCUGCCCUCAGAGCUCGAGAACAUCUUCGGAUGCAGAGGAGGAAGGCUUCGGUGGCGCGAUAGCGCCAACGUCCUCAACCUCCAAUGAAUCCCACCCCAUGAUGAUGCCUGAAGAGCCUUGGUUUUUUG [C49A C94A A103C] in the same way.
band 1

Consider next the variant GACCAAUCUGCCCUCAGAGCUCGAGAACAUCUUCGGAUGCAGAGGAGGCAGGCUUCGGUGGCGUGAUAGCGCCAACGUCCUCAACCUCCAAUGCAUCCCACCACAUGAUUAUGCCUGAAGAGCCUUGGUUUUUUG [C64U G110U] in the same way.
band 3

Consider next the variant GACCACUCUACCCUCAGAGCUCGAGAACAUCUACGGAUGCAGAGGAGGAAGGCUUCGGUGGCGCGAUAGCGCCAACGUCCUCAACCUCCAAUGCAUCCCACCACAUGAUGAUGCCUGAAGUGCCUUGGUUUUUUG [A6C G10A U33A C49A A121U] in the same way.
band 2

Consider next the variant GACCAAUCCGCCCUCAGAGCUCGAGAACAUCUUCGGAUGCAGAGGAGGCAGGCUUCGGUGGCGCGAUAGCGCCAACGUCCUCAACCUCCAAUGCAUCCCAGCAUAUGAUGAUGCCCGAAGAGCCUUGGUUUUUUG [U9C C101G C104U U116C] in the same way.
band 2

Consider next the variant GACCAAUCUGCCCUCAGAGCUCGAGAACAUCUUCGGAUGCAGAGGAGGCAGGCUUCGGUGGCGCGAUAGCGCCAACGUCCUCAACCUCCAAUGCAUCCCACCACAUGAUGAUUCAUGAAGAGCCUUGGUUUUUUG [G113U C115A] in the same way.
band 1

Origin of values: the RNAGym collection of RNA variant scans (doi:10.1073/pnas.2313332121)
